Tested on: Escherichia coli TOP10;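 also: peptides expressed intracellularly from a pBAD plasmid library in pooled LB shake-flask culture, induced with 0.3% L-arabinose, DNA abundance read by NGS, three biological replicates, DESeq2 with apeglm shrinkage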
Method: shrunken log2 fold change of peptide-encoding DNA abundance (4.5 h post-induction vs induction); higher = less antimicrobial activity (less host growth inhibition)
Protocol Conditions: time post-induction: 4.5 h; library: site-saturation at positions 5, 18, 19, 20
Form field: shrunken log2 fold change (one value per entry).
Response field accepts a number only; no unit should be typed.

{"Entry Sequence": "RRIRCRPPRLPRPRPRPMGFPRP", "Recorded Number": -0.103}
{"Entry Sequence": "RRIRYRPPRLPRPRPRPRSNPRP", "Recorded Number": 0.00328}
{"Entry Sequence": "RRIRKRPPRLPRPRPRPNPHPRP", "Recorded Number": 0.188}
{"Entry Sequence": "RRIRDRPPRLPRPRPRPKAWPRP", "Recorded Number": 0.107}

Entry under review: RRIRPRPPRLPRPRPRPSDGPRP . Reported shrunken log2 fold change?
-0.26

Entry under review: RRIRARPPRLPRPRPRPAKNPRP . Reported shrunken log2 fold change?
0.312

Entry under review: RRIRMRPPRLPRPRPRPQCRPRP . Reported shrunken log2 fold change?
0.253

Entry under review: RRIRIRPPRLPRPRPRPKWLPRP . Reported shrunken log2 fold change?
0.0546

Entry under review: RRIRDRPPRLPRPRPRPNGDPRP . Reported shrunken log2 fold change?
-0.00931

Entry under review: RRIRFRPPRLPRPRPRPMCGPRP . Reported shrunken log2 fold change?
-0.164

Entry under review: RRIRNRPPRLPRPRPRPDEVPRP . Reported shrunken log2 fold change?
-0.00973

Entry under review: RRIRWRPPRLPRPRPRPFAKPRP . Reported shrunken log2 fold change?
0.382

Entry under review: RRIRMRPPRLPRPRPRPHFQPRP . Reported shrunken log2 fold change?
0.22

Entry under review: RRIRLRPPRLPRPRPRPQWNPRP . Reported shrunken log2 fold change?
-0.289

Entry under review: RRIRDRPPRLPRPRPRPGHLPRP . Reported shrunken log2 fold change?
-0.000122

Entry under review: RRIRWRPPRLPRPRPRPKGWPRP . Reported shrunken log2 fold change?
0.845

Entry under review: RRIRYRPPRLPRPRPRPCWDPRP . Reported shrunken log2 fold change?
-0.0738
